MEASUREMENT TARGET: Glucocorticoid receptor (Homo sapiens) (UniProt P04150)
Sequence (P04150 whole entry, looked up): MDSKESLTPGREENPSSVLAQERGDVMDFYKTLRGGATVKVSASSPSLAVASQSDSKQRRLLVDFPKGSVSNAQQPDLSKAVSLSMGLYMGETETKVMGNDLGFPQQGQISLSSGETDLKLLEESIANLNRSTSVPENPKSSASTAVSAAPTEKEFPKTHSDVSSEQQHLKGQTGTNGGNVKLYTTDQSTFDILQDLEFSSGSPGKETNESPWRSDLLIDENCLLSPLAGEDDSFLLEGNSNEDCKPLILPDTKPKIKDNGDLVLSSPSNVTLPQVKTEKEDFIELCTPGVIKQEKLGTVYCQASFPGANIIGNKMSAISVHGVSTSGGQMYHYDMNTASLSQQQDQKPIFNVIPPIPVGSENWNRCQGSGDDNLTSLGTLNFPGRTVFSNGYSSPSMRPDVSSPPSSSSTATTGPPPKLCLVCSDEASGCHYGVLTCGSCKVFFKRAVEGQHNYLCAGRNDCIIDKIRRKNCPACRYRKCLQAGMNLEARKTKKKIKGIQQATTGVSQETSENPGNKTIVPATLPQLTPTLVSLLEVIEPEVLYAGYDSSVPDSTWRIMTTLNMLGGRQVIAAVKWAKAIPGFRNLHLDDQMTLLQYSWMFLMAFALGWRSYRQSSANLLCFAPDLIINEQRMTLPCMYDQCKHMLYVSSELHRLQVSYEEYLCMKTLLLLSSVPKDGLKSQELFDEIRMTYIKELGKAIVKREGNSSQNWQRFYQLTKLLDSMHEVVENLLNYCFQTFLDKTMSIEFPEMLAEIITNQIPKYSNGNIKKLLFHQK
RUN DESCRIPTION: qHTS assay to identify small molecule agonists of the glucocorticoid receptor (GR) signaling pathway (AID 720691)
MEASUREMENT CONDITIONS: GR-bla HeLa, beta-lactamase reporter ratio, 18 h
Inconclusive results are not listed. Activity calls are given as the source filed them. The call rests on the fitted dose curve; in most records, active means well fitted activation curve with a large enough effect in the signal ratio in the repeat runs (not every such curve was filed as active); inconclusive means weak or mixed curves, or effect the other way; inactive means no such curve, though single readings can be large or run the other way; the % refers to the signal ratio.
Result category, one only: active, inactive

compound=Cc1[nH]c(C)c(Cl)c(=O)c1Cl answer_label=inactive

Consider the record given below.
Which outcome was assigned to CNCCCCOc1ccccc1Cc1ccccc1 in this test?
inactive

---

RUN DESCRIPTION: A CellTox Green Cytotoxicity Assay to monitor cytotoxicity in HepG2 cells - 32 hour (AID 1224883); further: nearly all actives have a fitted effect of over 50% in size
MEASUREMENT CONDITIONS: CellTox Green fluorescence; series mostly up to 76.8 µM
Inconclusive results are not listed. Active and inactive are the calls of the source. Calls come from the whole dose curve; as a rule, active = well fitted activation curve with a large enough effect in the repeat runs; inconclusive = weak or mixed curves; inactive = flat fitted curve, though single readings scatter.
Result category, one only: active, inactive

Use these answered entries as a reference point.
compound=Cc1cccc(C)c1OCC(=O)N[C@@H](Cc1ccccc1)[C@@H](O)C[C@H](Cc1ccccc1)NC(=O)[C@H](C(C)C)N1CCCNC1=O answer_label=inactive
compound=O=C1C(O)=C(O)C(=O)C(O)=C1O answer_label=inactive
compound=Cc1oc(-c2ccccc2)nc1CCOc1cccc2c1ccn2CCC(=O)O answer_label=inactive
compound=O=C(OCCc1ccccc1)c1ccccc1 answer_label=inactive
compound=CCOC(=O)C(=O)CCc1ccccc1 answer_label=inactive
compound=Cc1ncc(CO)c(C=O)c1O answer_label=inactive
compound=C[C@H]1C[C@H]2[C@@H]3CCC4=CC(=O)C=C[C@]4(C)[C@@]3(Cl)[C@@H](O)C[C@]2(C)[C@@]1(O)C(=O)CO answer_label=inactive
compound=CCCCOC(=O)CCCCCCCC(=O)OCCCC answer_label=inactive
compound=NCCCN1CCOCC1 answer_label=inactive
compound=NS(=O)(=O)c1ccc(N2CCCCS2(=O)=O)cc1 answer_label=inactive

Which outcome was assigned to COCCCN1CCC(NC(=O)c2cc(Cl)c(N)c3c2OCC3)CC1 in this test?
inactive

Which outcome was assigned to C=C(C)C(=O)OCCO in this test?
inactive

Which outcome was assigned to CN1CCC(N(Cc2cccs2)c2ccccc2)CC1 in this test?
active

Which outcome was assigned to CCOc1ccc(N=Nc2ccc(/C=C/c3ccc(N=Nc4ccc(OCC)cc4)cc3S(=O)(=O)O)c(S(=O)(=O)O)c2)cc1 in this test?
inactive

Which outcome was assigned to C=CC(=O)OCCOCCOC(=O)C=C in this test?
active

Which outcome was assigned to CCc1cc(C2=C(C(=O)O)N(c3ccccc3C(F)(F)F)S(=O)(=O)c3ccccc32)cc2c1OCO2 in this test?
inactive

Which outcome was assigned to COc1ccc(C)cc1[N+](=O)[O-] in this test?
inactive
